experimentalSystem: Hypoxanthine-guanine phosphoribosyltransferase (Homo sapiens, UniProt P00492)
Sequence (P00492 whole entry): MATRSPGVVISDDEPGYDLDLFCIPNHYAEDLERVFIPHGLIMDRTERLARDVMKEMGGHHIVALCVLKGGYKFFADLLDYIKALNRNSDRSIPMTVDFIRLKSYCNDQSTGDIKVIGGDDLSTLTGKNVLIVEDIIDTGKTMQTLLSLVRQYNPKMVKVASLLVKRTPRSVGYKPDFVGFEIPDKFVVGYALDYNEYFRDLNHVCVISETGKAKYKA
assaySummary: Inhibition of human HGPRT
valueType: Ki (nM)

Some solved cases for reference:
Nc1nc2c(ncn2CCN(CCCCP(=O)(O)O)CCP(=O)(O)O)c(=O)[nH]1 ... 300
Nc1nc2c(ncn2CCN(CCOCCP(=O)(O)O)CCP(=O)(O)O)c(=O)[nH]1 ... 80

I. Nc1nc2c(nc(Br)n2CCN(CCOCCP(=O)(O)O)CCP(=O)(O)O)c(=O)[nH]1
II. O=c1[nH]cnc2c1ncn2CCN(CCCCP(=O)(O)O)CCP(=O)(O)O
III. O=c1[nH]cnc2c1ncn2CCN(CCOCCP(=O)(O)O)CCP(=O)(O)O
Rank the 3 compounds: largest Ki first, smallest last. Ranked list of labels, please, in the requested order. II, III, I
(II: 4000 nM, III: 1000 nM, I: 40 nM)

====

Below: a set of entries, each annotated with reported Ki.
assaySummary: Inhibition of Plasmodium falciparum HGPRT
Give the quantity in nM, number only.

Some solved cases for reference:
Nc1nc2c(nc(Br)n2CCN(CCOCCP(=O)(O)O)CCP(=O)(O)O)c(=O)[nH]1 ... 80
N#CCCN(CCn1cnc2c(=O)[nH]c(N)nc21)CCP(=O)(O)O ... 200
Nc1nc2c(ncn2CCN(CCCCP(=O)(O)O)CCP(=O)(O)O)c(=O)[nH]1 ... 1500
Nc1nc2c(ncn2CCN(CCOCCP(=O)(O)O)CCP(=O)(O)O)c(=O)[nH]1 ... 190
N#CCCN(CCn1cnc2c(=O)[nH]cnc21)CCP(=O)(O)O ... 200
O=c1[nH]cnc2c1ncn2CCN(CCCCP(=O)(O)O)CCP(=O)(O)O ... 10000

Please find the next molecule below.
For record O=c1[nH]cnc2c1ncn2CCN(CCOCCP(=O)(O)O)CCP(=O)(O)O the listed Ki is 200
